- System: M. tuberculosis H37Rv growth inhibition
- TEST_NAME: M. tuberculosis H37Rv growth inhibitors, H37Rv strain (AID 1626)
- CONDITION_SUMMARY: measured here: Vero cell cytotoxicity
Recorded CC50 values for a group of molecules are listed next.

Requested field: CC50. Item: COCc1cc(S(=O)c2ccc(Cl)cc2)nc(C)n1 (stereo not given)
22.1 µM

Requested field: CC50. Item: `COc1ccc(NCc2nc3ccccc3n2CCOc2ccc(C)cc2)cc1`
26.2 µM

----------
- System: M. tuberculosis H37Rv growth inhibition
- TEST_NAME: M. tuberculosis H37Rv growth inhibitors, H37Rv strain (AID 1626)
- CONDITION_SUMMARY: measured here: IC90 against H37Rv
Recorded IC90 values for a group of compounds are listed next.

COMPOUND | EXPERIMENTAL_READOUT | RESULT
Cc1coc2c1C(=O)C(=O)c1c-2ccc2c1CCCC2(C)C | IC90 | 4.85 µM
COc1ccc(N=C/C=C2/C=C(c3ccccc3)OC(C)(C)O2)cc1 | IC90 | > 100 µM
Cc1cc(C)c2c(CN3CCN(Cc4ccc5c(c4)OCO5)CC3)cc(=O)oc2c1C | IC90 | > 100 µM
O=C(/C=C/c1cccc(Cl)c1)c1nc2ccccc2[nH]1 | IC90 | 3.34 µM
O=C(Nc1nccs1)c1ccccn1 | IC90 | 15.7 µM
Oc1c(Cl)cc(Cl)c2cccnc12 | IC90 | 0.858 µM

Requested field: IC90. Item: `Cn1nc(-c2ccc(Cl)cc2)c2cc(C(=O)N3CCN(c4ccccn4)CC3)sc21`
4.36 µM

Requested field: IC90. Item: `O=C(NCCc1c[nH]c2ccccc12)c1cc2ccccc2oc1=O`
< 0.195 µM

Requested field: IC90. Item: `CCC(=O)Nc1nc2ccccc2n1Cc1ccc(Cl)cc1`
> 100 µM

Requested field: IC90. Item: `Cc1cc(NC(=O)c2c(F)cccc2F)n(-c2nc3ccccc3[nH]2)n1`
21.2 µM

Requested field: IC90. Item: `CCOC(=O)c1ccc(NC(=O)Cn2cccc2)cc1`
> 100 µM

Requested field: IC90. Item: `O=C(/C=C/c1ccnc2ccccc12)c1cccs1`
24.6 µM

Requested field: IC90. Item: `Cc1cccc(NC(=O)c2ccc([N+](=O)[O-])o2)c1C`
23.9 µM

Requested field: IC90. Item: `COc1ccc(NC(=O)c2nc[nH]c2C(=O)N[C@@H](C)c2ccccc2)cc1`
22.4 µM
